Study target: recombinant EZH2-641F complex (EZH2 Y641F/EED/SUZ12/RbAp48/AEBP2) (Homo sapiens (Human), UniProt Q15910, Y641F)
Sequence (Q15910 whole entry Y641F): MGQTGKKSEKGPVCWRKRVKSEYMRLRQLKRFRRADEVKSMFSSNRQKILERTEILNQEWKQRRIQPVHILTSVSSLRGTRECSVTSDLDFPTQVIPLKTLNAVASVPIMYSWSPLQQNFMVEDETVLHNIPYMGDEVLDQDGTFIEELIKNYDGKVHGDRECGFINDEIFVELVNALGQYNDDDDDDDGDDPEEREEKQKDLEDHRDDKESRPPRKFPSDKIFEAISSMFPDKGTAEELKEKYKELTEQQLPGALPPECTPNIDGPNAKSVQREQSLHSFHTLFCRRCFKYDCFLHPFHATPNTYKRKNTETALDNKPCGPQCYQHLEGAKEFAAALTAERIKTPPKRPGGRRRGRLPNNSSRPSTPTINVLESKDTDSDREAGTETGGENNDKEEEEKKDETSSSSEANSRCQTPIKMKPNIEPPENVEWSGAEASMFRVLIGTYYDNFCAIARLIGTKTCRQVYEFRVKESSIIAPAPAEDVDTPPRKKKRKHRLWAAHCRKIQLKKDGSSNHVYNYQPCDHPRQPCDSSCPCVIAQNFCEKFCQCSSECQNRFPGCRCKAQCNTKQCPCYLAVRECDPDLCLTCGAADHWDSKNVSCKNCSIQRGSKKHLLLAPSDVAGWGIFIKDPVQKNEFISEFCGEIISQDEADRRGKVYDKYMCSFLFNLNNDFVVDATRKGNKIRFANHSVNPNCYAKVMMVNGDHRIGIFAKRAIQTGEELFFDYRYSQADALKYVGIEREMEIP
Sequence (O75530 whole entry partner): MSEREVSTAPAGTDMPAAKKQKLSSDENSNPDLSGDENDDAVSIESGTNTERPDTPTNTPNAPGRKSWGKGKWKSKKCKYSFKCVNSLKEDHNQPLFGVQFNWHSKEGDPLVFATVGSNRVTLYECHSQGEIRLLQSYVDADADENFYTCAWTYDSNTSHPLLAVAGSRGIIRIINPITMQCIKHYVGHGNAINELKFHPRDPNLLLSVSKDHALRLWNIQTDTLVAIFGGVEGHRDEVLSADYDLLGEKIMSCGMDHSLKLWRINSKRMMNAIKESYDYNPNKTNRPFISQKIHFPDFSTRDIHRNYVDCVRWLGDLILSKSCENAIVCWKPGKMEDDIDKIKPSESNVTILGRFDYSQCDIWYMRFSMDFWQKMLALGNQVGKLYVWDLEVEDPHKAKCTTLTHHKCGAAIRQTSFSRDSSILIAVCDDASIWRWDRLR
Sequence (Q15022 whole entry partner): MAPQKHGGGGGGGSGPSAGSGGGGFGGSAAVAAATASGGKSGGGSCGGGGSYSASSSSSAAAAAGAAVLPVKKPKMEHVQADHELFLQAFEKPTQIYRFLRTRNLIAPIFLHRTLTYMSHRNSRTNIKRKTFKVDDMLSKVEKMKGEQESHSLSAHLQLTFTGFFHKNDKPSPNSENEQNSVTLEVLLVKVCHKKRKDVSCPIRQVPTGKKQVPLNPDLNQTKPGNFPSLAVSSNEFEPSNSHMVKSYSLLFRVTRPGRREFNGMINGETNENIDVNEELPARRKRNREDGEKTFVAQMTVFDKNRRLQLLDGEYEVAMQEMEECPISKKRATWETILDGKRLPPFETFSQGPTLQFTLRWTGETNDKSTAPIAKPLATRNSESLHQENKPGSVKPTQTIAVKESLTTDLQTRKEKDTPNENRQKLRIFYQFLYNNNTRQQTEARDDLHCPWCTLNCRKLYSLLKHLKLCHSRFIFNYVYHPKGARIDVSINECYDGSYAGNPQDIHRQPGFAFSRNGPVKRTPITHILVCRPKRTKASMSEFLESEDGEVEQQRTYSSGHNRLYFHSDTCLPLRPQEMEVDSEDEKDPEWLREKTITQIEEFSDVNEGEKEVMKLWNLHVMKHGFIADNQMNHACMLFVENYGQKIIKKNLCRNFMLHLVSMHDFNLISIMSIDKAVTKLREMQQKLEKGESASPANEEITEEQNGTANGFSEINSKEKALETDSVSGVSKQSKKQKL
Sequence (Q09028 whole entry partner): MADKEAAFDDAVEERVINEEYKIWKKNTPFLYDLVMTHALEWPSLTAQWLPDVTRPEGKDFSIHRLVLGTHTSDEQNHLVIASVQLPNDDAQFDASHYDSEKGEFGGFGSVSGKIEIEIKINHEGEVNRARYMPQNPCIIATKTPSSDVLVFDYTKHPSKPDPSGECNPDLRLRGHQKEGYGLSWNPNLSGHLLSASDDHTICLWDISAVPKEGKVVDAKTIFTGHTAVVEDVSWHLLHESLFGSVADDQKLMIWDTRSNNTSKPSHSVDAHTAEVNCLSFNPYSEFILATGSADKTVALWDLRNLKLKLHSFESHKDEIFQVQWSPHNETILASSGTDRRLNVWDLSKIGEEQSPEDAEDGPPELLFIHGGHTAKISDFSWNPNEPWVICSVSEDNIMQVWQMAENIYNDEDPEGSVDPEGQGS
Sequence (Q6ZN18 whole entry partner): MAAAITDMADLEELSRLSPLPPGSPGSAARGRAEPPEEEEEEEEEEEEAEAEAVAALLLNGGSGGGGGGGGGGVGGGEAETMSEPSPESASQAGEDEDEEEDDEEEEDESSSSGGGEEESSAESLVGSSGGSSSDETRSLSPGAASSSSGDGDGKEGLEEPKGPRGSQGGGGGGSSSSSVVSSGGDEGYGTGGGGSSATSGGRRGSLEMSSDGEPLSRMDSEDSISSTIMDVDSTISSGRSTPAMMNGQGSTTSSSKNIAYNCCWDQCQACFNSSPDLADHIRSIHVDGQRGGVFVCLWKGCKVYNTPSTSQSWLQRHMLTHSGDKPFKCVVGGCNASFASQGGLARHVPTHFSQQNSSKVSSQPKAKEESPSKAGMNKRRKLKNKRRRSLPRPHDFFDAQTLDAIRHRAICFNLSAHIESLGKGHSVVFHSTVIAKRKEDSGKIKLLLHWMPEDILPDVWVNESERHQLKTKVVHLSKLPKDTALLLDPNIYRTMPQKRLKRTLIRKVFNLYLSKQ
Protocol: EZH2 Histone Methyl Transferase Assay (scintillation proximity assay)
Test conditions: 350 nM histone peptide substrate, 500 nM 3H-SAM, 3 hours room temperature
Experimental readout: IC50

COc1ccc(-c2cc(C(=O)NCc3c(C)cc(C)[nH]c3=O)cc3c2OC(C)CCC3)cn1 (stereo not drawn) : > 1000 nM
Cc1cc(C)c(CNC(=O)c2ccc3c(c2)CCCC(C)O3)c(=O)[nH]1 (stereo not drawn) : > 1000 nM
Cc1cc(C)c(CNC(=O)c2cc3c(c(-c4ccc(N5CCNCC5)nc4)c2)OC(C)C3)c(=O)[nH]1 (stereo not drawn) : > 1000 nM
Cc1cc(C)c(CNC(=O)c2cc3c(c(-c4cnc(N5CCN(C(=O)OC(C)(C)C)CC5)nc4)c2)OC2(CCCC2)C3)c(=O)[nH]1 : > 1000 nM

Any idea what its IC50 is? The molecule is `CC1=C(C)Cc2cc(C(=O)NCc3c(C)cc(C)[nH]c3=O)cc(Br)c2OC1`
> 1000 nM

Request: `Cc1cc(C)c(CNC(=O)c2cc(Cc3ccccc3)c3c(c2)CC(C)(C)O3)c(=O)[nH]1`
> 1000 nM

Same question for COc1ccc(-c2cc(C(=O)NCc3c(C)cc(C)[nH]c3=O)cc3c2OC(C)C3)cn1 (stereo not drawn) please.
> 1000 nM

Then this molecule: CCC1(C)Cc2cc(C(=O)NCc3c(C)cc(C)[nH]c3=O)cc(-c3ccc(OC)nc3)c2O1 (stereo not drawn)
> 1000 nM

---

Study target: recombinant EZH2-641F complex (EZH2 Y641F/EED/SUZ12/RbAp48/AEBP2) (Homo sapiens (Human), UniProt Q15910, Y641F)
Protocol: EZH2 Histone Methyl Transferase Assay (scintillation proximity assay)
Test conditions: 350 nM histone peptide substrate, 500 nM 3H-SAM, 3 hours room temperature
pIC50: −log10 of the molar value.
Experimental readout: pIC50

Cc1cc(C)c(CNC(=O)c2cc3c(c(-c4cnc5ccccc5c4)c2)OC(C)(C)C3)c(=O)[nH]1 [Example 13] : < 6.00
COc1ccc(-c2cc(C(=O)NCc3c(C)cc(C)[nH]c3=O)cc3c2OCC3C)cn1 (stereo not shown) [Example 30] : < 6.00

Request the reported pIC50 associated with C=C(C)C1(C)Cc2cc(C(=O)NCc3c(C)cc(C)[nH]c3=O)cc(-c3ccc(OC)nc3)c2O1 (stereo not shown) [Example 83]
6.00 to 6.30

// repeat for Cc1cc(C)c(CNC(=O)c2cc(-c3ccc(N4CCNCC4)nc3)c3c(c2)[C@@H]2CCC[C@]2(C)O3)c(=O)[nH]1 (racemic) [Example 65] and report
> 6.30

Ok, now Cc1cc(C)c(CNC(=O)c2cc(-c3ccc(CN4CCCCC4)cc3)c3c(c2)C2(CCCC2)CO3)c(=O)[nH]1 [Example 78]
< 6.00

Param item: Cc1cc(C)c(CNC(=O)c2cc(Br)c3c(c2)C2(CCCC2)CO3)c(=O)[nH]1 [Example 75]
< 6.00

What would you report for COc1ccc(-c2cc(C(=O)NCc3c(C)cc(C)[nH]c3=O)cc3c2O[C@@]2(C)CCC[C@@H]32)cn1 (racemic) [Example 66] ?
6.00 to 6.30

---

Study target: recombinant EZH2-641F complex (EZH2 Y641F/EED/SUZ12/RbAp48/AEBP2) (Homo sapiens (Human), UniProt Q15910, Y641F)
Protocol: EZH2 Histone Methyl Transferase Assay (scintillation proximity assay)
Test conditions: 350 nM histone peptide substrate, 500 nM 3H-SAM, 3 hours room temperature
pIC50: −log10 of the molar value.
Experimental readout: pIC50

// solved cases for pIC50 follow
COc1ccc(-c2cc(C(=O)NCc3c(C)cc(C)[nH]c3=O)c(C)c3c2OC(C)(C)C3)cn1 [Example 25] : 6.00 to 6.30
Cc1cc(C)c(CNC(=O)c2cc(Br)c3c(c2)[C@@H]2CCC[C@]2(C)O3)c(=O)[nH]1 (racemic) [Example 64] : < 6.00
Cc1cc(C)c(CNC(=O)c2ccc3c(c2)CC(C)(C)O3)c(=O)[nH]1 [Example 2] : < 6.00

Attention now turns to another entry.
What value of pIC50 has been recorded for this entry: COc1ccc(-c2cc(C(=O)NCc3c(C)cc(C)[nH]c3=O)cc3c2OCCC(C)C3)cn1 (stereo not shown) [Example 46]
< 6.00

---

Measured pIC50, listed per entry for reference.
Study target: recombinant EZH2-641F complex (EZH2 Y641F/EED/SUZ12/RbAp48/AEBP2) (Homo sapiens (Human), UniProt Q15910, Y641F)
Protocol: EZH2 Histone Methyl Transferase Assay (scintillation proximity assay)
Format: biochemical
Test conditions: 350 nM histone peptide substrate, 500 nM 3H-SAM, 3 hours room temperature
pIC50: −log10 of the molar value.

Past entries and their recorded results:
Cc1cc(C)c(CNC(=O)c2cc(C#N)c3c(c2)CC(C)(C)O3)c(=O)[nH]1 : < 6.00
Cc1cc(C)c(CNC(=O)c2ccc3c(c2)CCC(C)(C)O3)c(=O)[nH]1 : < 6.00
Cc1cc(C)c(CNC(=O)c2cc3c(c(-c4ccc(N5CCOCC5)nc4)c2)OC(C)(C)C3)c(=O)[nH]1 : > 6.30

We now examine a further compound.
What does the record list as pIC50 for `Cc1cc(C)c(CNC(=O)c2cc(-c3ccc(N4CCNCC4)nc3)c3c(c2C)CC(C)(C)O3)c(=O)[nH]1` ?
> 6.30

---

The compounds listed here are annotated with their pIC50.
Study target: recombinant EZH2-641F complex (EZH2 Y641F/EED/SUZ12/RbAp48/AEBP2) (Homo sapiens (Human), UniProt Q15910, Y641F)
Protocol: EZH2 Histone Methyl Transferase Assay (scintillation proximity assay)
Test conditions: 350 nM histone peptide substrate, 500 nM 3H-SAM, 3 hours room temperature
Procedure: EZH2 Histone Methyl Transferase Assay The effectiveness of compounds of the present invention as inhibitors of histone methyl transferases can be readily tested by assays known to those skilled in the art. […] Incorporation of radioactive methyl group into the histone peptide substrate was determined in Leadseeker (GE Healthcare) by means of scintillation proximity assay. […] Compounds were dissolved at 10 mM in dimethylsulfoxide (DMSO) and evaluated at eleven concentrations. […]
pIC50: −log10 of the molar value.

Example entries and their recorded answers appear below.
Cc1cc(C)c(CNC(=O)c2cc(-c3ccc(N4CCOCC4)nc3)c3c(c2)C(C)CO3)c(=O)[nH]1 (centres unmarked) [Example 27] : < 6.00
Cc1cc(C)c(CNC(=O)c2cc3c(c(-c4ccc(N5CCNCC5)nc4)c2)OC(C(C)C)C3)c(=O)[nH]1 (centres unmarked) [Example 80] : < 6.00
Cc1cc(C)c(CNC(=O)c2cc(Br)c3c(c2)CCC(C)(C)O3)c(=O)[nH]1 [Example 42] : < 6.00
CCC1(C)Cc2cc(C(=O)NCc3c(C)cc(C)[nH]c3=O)cc(-c3ccc(C)cc3)c2O1 (centres unmarked) [Example 63] : < 6.00
Cc1cc(C)c(CNC(=O)c2cc3c(c(-c4ccc(CN5CCCCC5)cc4)c2)OC(C)(C)C3)c(=O)[nH]1 [Example 19] : < 6.00
Cc1cc(C)c(CNC(=O)c2cc(-c3ccc(CN4CCOCC4)cc3)c3c(c2)C(C)CO3)c(=O)[nH]1 (centres unmarked) [Example 28] : < 6.00
Cc1cc(C)c(CNC(=O)c2cc(C)c3c(c2C)CC(C)(C)O3)c(=O)[nH]1 [Example 9] : < 6.00
Cc1cc(C)c(CNC(=O)c2cc3c(c(-c4cnc(N5CCN(C(=O)OC(C)(C)C)CC5)nc4)c2)OC(C)(C)C3)c(=O)[nH]1 [Example 17] : > 6.30
Cc1cc(C)c(CNC(=O)c2cc3c(c(-c4ccc(N5CCNCC5)nc4)c2)OCC(C)CC3)c(=O)[nH]1 (centres unmarked) [Example 55] : < 6.00
Cc1cc(C)c(CNC(=O)c2cc(Br)c3c(c2)CC(C)(C)O3)c(=O)[nH]1 [Example 1] : > 6.30

For the compound Cc1cc(C)c(CNC(=O)c2cc3c(c(Br)c2C)O[C@@]2(C)CCC[C@@H]32)c(=O)[nH]1 (racemic) [Example 69] , what pIC50 is on record?
> 6.30

How about this compound: COc1ccc(-c2cc(C(=O)NCc3c(C)cc(C)[nH]c3=O)cc3c2OCC3)cn1 [Example 36]
< 6.00

Now the compound Cc1cc(C)c(CNC(=O)c2cc(C)c3c(c2)CC(C)(C)O3)c(=O)[nH]1 [Example 6]
< 6.00

Now this one: C=CC1(C)Cc2cc(C(=O)NCc3c(C)cc(C)[nH]c3=O)cc(-c3ccc(OC)nc3)c2O1 (centres unmarked) [Example 56]
< 6.00
